biological target: Homeobox protein Hox-A13 (Mus musculus) (UniProt Q62424); assay: inhibitors of HoxA13-DNA binding, primary screen, biochemical, fluorescence polarization, labeled oligonucleotide (AID 1185); conditions: 15 min, higher = more signal, called active from +8 up or from −8 down
Sequence (Q62424 whole entry, looked up): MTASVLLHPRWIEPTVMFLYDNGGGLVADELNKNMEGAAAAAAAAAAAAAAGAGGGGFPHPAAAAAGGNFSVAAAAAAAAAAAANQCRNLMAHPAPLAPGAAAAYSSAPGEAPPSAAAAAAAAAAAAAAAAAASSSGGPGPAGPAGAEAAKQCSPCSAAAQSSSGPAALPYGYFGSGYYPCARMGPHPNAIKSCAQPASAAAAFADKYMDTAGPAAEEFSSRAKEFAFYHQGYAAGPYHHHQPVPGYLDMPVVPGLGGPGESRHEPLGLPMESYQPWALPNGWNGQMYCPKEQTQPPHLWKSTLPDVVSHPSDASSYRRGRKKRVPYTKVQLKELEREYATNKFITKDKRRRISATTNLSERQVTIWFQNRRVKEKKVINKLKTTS
Outcome Measure: z-score
Answers are plain numbers.

Hi! Can you tell me z-score for each of these compounds?
1. CO[C@@H]1COC(=O)[C@@H](C)NC(=O)CC=C[C@@H](C)[C@H](NS(=O)(=O)c2ccc(C)cc2)COC(=O)[C@H](C)NC(=O)CC=C[C@H]1C
2. O=C1[C@H]2[C@H]3[C@H](O)[C@H](O)CC(=NOCc4ccccc4)[C@@H]3CC[C@H]2C(=O)N1C[C@@H]1CCCO1
3. CO[C@@H]1C=CCC(=O)N[C@@H](C)C(=O)OC[C@@H](OC)[C@H](C)CCCC(=O)OC[C@H]1C
4. C#CCCCON=C1C[C@@H](O)[C@@H](O)[C@@H]2[C@@H]3C(=O)N(C(C)(C)C)C(=O)[C@@H]3CC[C@@H]12

Response:
1: -0.348; 2: -1.49; 3: -0.313; 4: -3.44

---

Consider the following compounds; for each one, report its z-score.
assay: E. coli acrAB mutant growth effects, primary screen, E. coli filamentation inducers, strain DRC39, OD650, 24 h (AID 1178); conditions: higher = more signal, called active from +8 up or from −8 down;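 note: growth measured as culture turbidity by optical density at 650 nm; test concentration not given here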
Numbers only.

Would you please look over these solved cases?
Compound	Experimental Value
COc1cccc([C@H]2Oc3ccc(OC)cc3C(=NOC(C)CN3CCCCc4nc(C)c(C)cc43)[C@@H]2O)c1 (some centres undefined)	0.597
CCN1C(=O)[C@H]2[C@H]3[C@H](O)[C@H](O)CC(=NOC[C@H]4O[C@H](c5ccccc5)C=C[C@@H]4Oc4ccc(OC)cc4)[C@@H]3CC[C@H]2C1=O	0.602
CCOC(=O)[C@H](CC(C)C)NC(=O)CCC1CC(OC(=O)NCc2cccc3ccccc23)CC2(CCCC(COC(=O)NCc3ccncc3)O2)O1 (some centres undefined)	1.1

Shifting focus to the compound that follows.
Query: Hello, please tell me recorded z-score for this one: "CC(C)(C)N1C(=O)[C@H]2[C@H]3[C@H](O)[C@H](O)CC(=NOCc4ccccc4)[C@H]3CC[C@H]2C1=O"
Response: 0.184

---

assay: COS7 lysate on small-molecule microarray, probe aHis, 635 nm (AID 1123); conditions: COS7 cell lysate, fluorescence, higher = more signal;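 note: z-score combines 667nm fluorescence intensity with signal-to-noise per printed compound spot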
Outcome Measure: composite z-score

Molecule	composite z-score
COC(=O)CC=C[C@@H](C)[C@@H](C=NOC[C@H]1O[C@H](c2ccccc2)C=C[C@@H]1Oc1ccc(OC)cc1)OC	-0.3

Hello, I would appreciate it if you could give composite z-score for each entry below.
1. O=C1[C@H]2[C@H]3[C@H](O)[C@H](O)CC(=NOCc4ccccc4)[C@@H]3CC[C@H]2C(=O)N1c1ccc(F)cc1F
2. O=c1n(Cc2cc3c(cc2Cl)OCO3)c(=O)n2n1CC[C@@H]1C(=NOC[C@@H](O)COCc3ccco3)[C@H]3O[C@H]3[C@@H](O)[C@@H]12
3. CCN1C(=O)[C@@H]2[C@H]3C(=CC[C@@H]2C1=O)C1(OCCCO1)[C@H]1O[C@H]1[C@H]3O
4. CC(C)[C@@H](OCc1ccccc1)[C@H](C)C=NOC[C@@H](O)COCc1ccco1
5. CO[C@H]1COC(=O)[C@@H](Cc2ccccc2)NC(=O)[C@@H](C)COC(=O)CCC[C@@H]1C
6. CC(C)CCN1CCc2nc(COc3ccccc3)c3c(c2C1)CO[C@@H](C)C3
7. COC(=O)[C@H](C)NC(=O)CCC1CC(OC(=O)NCc2ccc3c(c2)OCO3)CC2(CCCC(COC(=O)NCC3CCCCC3)O2)O1 (stereo partly drawn)

Response:
1: 0.0305; 2: -0.0175; 3: 2.12; 4: 0.0121; 5: 0.0267; 6: 0.965; 7: 1.19

---

I'd be grateful if you could share measured composite z-score for these entries.
assay: small-molecule microarray binders of probe aNog, primary screen, biochemical, biotinylated probe, 635/667 nm fluorescence (AID 1115); conditions: higher = more signal;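 note: probe is biotinylated aNog protein used at 0.15 µg/mL for 1 h at 4 C; z-score combines 667 nm fluorescence of each spot with its signal to noise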

Would you please look over these solved cases?
Molecule	composite z-score
C[C@@H](c1ccccc1)N1C(=O)[C@H]2[C@H]3[C@H](O)[C@H](O)CC(=NOCc4ccccc4)[C@H]3CC[C@H]2C1=O	-0.425
C#CCCCON=C1C[C@@H](O)[C@@H](O)[C@@H]2[C@@H]3C(=O)N(c4ccc(F)cc4F)C(=O)[C@@H]3CC[C@@H]12	0.14
CC(C)=CCCC(C)=CCON=C1C[C@@H](O)[C@@H](O)[C@@H]2[C@@H]3C(=O)N(C4CCCCC4)C(=O)[C@@H]3CC[C@@H]12	-0.261
COC(=O)C1=C(C)N(Cc2ccccc2)[C@]23O[C@](C(=O)OC)(C(=O)N2[C@@H]1c1ccccc1)C(C(=O)OC)=C3C(=O)OC	0.229
COc1cccc([C@H]2Oc3ccc(OC)cc3C(=NO[C@@H](C)c3cn([C@H](CO)Cc4ccccc4)nn3)[C@@H]2O)c1	0.0918
CCOC(=O)[C@H](CC(C)C)NC(=O)CCC1CC(OC(=O)NCc2cccc3ccccc23)CC2(CCCC(COC(=O)NCCOc3ccccc3)O2)O1 (some centres not stated)	-0.311

Note: attention shifts to another entry.
Query: Determine from records and report composite z-score for "CC(C)=CCCC(C)=CCON=C1C[C@@H](O)[C@@H](O)[C@@H]2[C@@H]3C(=O)N(c4ccc(F)cc4F)C(=O)[C@@H]3CC[C@H]12"
Response: -0.379

---

molecular target: Torsin-1A (Homo sapiens) (UniProt O14656); experiment: small-molecule binders of mutant TOR1A in lysate, primary screen, cell lysate, small-molecule microarray, COS7 lysate, 635/667 nm fluorescence (AID 1150); conditions: COS7 hTOR1A mutant lysate, 635 nm fluorescence, higher = more signal;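 note: score pools 667 nm emission and signal to noise measuring lysate protein binding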
Sequence (O14656 whole entry, looked up): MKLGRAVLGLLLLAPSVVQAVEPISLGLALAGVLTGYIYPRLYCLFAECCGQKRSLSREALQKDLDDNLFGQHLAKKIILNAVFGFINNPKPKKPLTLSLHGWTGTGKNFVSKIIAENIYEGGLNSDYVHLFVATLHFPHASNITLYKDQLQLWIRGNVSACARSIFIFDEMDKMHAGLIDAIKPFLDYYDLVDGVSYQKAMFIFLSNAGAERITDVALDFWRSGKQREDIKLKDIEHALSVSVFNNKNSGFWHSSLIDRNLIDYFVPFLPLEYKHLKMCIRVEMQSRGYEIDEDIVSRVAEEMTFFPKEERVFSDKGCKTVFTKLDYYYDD
Outcome Measure: composite z-score
Give bare numbers.

Could you tell me composite z-score for each of these compounds? They are listed below.
1. C=CC[C@@H]1C=C[C@H](ON=C(C)CCN2CCc3nc(-c4ccccc4)c(-c4ccccc4)cc3C2)[C@@H](CO)O1
2. CO[C@H]1COC(=O)CC=C[C@H](C)[C@@H](OC)COC(=O)[C@@H](C)NC(=O)CC=C[C@@H]1C
3. CCC(=O)[C@@]1(O)C(=O)N2C(=C3C(=O)OCC[C@@H]31)N(Cc1ccccc1)C(C)=C(C(=O)OC)[C@H]2c1ccccc1

Response:
[0.415, 2.16, 0.224]

---

assay: basal MM1S mitochondrial membrane potential changes, profiling panel, cell-based, JC-1 fluorescence, 24 h, 100 nL compound (AID 1170); conditions: higher = more signal; note: test concentration not given here
Please respond with reported z-score for every item in the list.
Give bare numbers.

Could you tell me z-score for each of these molecules? They are listed below.
1. COCCNC(=O)OCC1CCCC2(CC(OC(=O)NCc3ccc4c(c3)OCO4)CC(CCC(=O)N[C@@H](C)C(=O)OC)O2)O1 (stereo partly drawn)
2. COC(=O)CC=C[C@@H](C)[C@H](OCc1cccc(-c2ccccc2)c1)C1CCCCC1
3. CCOC(=O)[C@H](CC(C)C)NC(=O)CCC1CC(OC(=O)NCCc2ccc(F)cc2)CC2(CCCC(COC(=O)NCC3CCCCC3)O2)O1 (stereo partly drawn)
4. C#CCCCON=C1C[C@@H](O)[C@@H](O)[C@@H]2[C@@H]3C(=O)N(CC)C(=O)[C@@H]3CC[C@@H]12
5. Cc1cc2c(nc1C)CCCN2CC(O)CN1CCCc2nc(C)c(C)cc21
6. CCc1cc2c(nc1CC)CCN(CCC(C)=NO[C@H](C)c1cn([C@H](CO)Cc3ccccc3)nn1)C2
7. C#CCCCON=C1C[C@@H](O)[C@@H](O)[C@@H]2[C@@H]3C(=O)N(C(C)(C)C)C(=O)[C@@H]3CC[C@H]12
8. COC(=O)[C@H](C)NC(=O)CCC1CC(OC(=O)NCCc2ccc(F)cc2)CC2(CCCC(COC(=O)NCCC(C)C)O2)O1 (stereo partly drawn)

Response:
1: -0.318; 2: -0.172; 3: -0.24; 4: -0.312; 5: 0.382; 6: 0.105; 7: -0.708; 8: -1.51

---

For each entry below, report its z-score value.
assay: CREB reporter modulators under forskolin, primary screen, cell-based, PC12, CRE-LacZ reporter, forskolin-stimulated (AID 1146); settings: luminescence, 4.5 h, higher = more signal, called active from +8 up or from −8 down;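 note: PC12 cells with 6xCRE LacZ reporter stimulated by forskolin 10 µM; beta-galactosidase reporter signal reflecting CREB driven transcription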
Activity calls are given as the source filed them.

Compound	z-score
CC(=O)OC[C@H]1O[C@H](CC=NO[C@H](C)c2cn([C@H](CO)Cc3ccccc3)nn2)C=C[C@@H]1OC(C)=O	0.731 (inactive)
CCCNC(=O)OC[C@H]1O[C@H](CCON=C(C)CCC(=O)OC[C@H]2O[C@H](c3ccccc3)C=C[C@@H]2Oc2ccc(OC)cc2)C=C[C@@H]1Oc1ccc(OC)cc1	0.913 (inactive)
CO[C@H]1COC(=O)[C@@H](Cc2ccccc2)NC(=O)[C@@H](C)COC(=O)CCC[C@@H]1C	-0.596 (inactive)
O=C1OCCC=C1C(O)CCc1ccccc1 (stereo not given)	0.571 (inactive)
CCOC(=O)NN=C1C[C@@H](O)[C@@H](O)[C@@H]2[C@@H]3C(=O)N(c4ccc(F)cc4F)C(=O)[C@@H]3CC[C@@H]12	0.34 (inactive)

Please give z-score, item by item, for the list that follows.
1. C=CC[C@@H]1C=C[C@H](ON=C(C)CCC(=O)OC[C@H]2O[C@H](C#Cc3ccccc3)C=C[C@@H]2Oc2ccc(C)cc2)[C@@H](CO)O1
2. O=c1n(Cc2cc3c(cc2Cl)OCO3)c(=O)n2n1CC[C@@H]1C(=NOC[C@@H](O)COCc3ccco3)[C@H]3O[C@H]3[C@@H](O)[C@@H]12
3. O=C1[C@H]2[C@H]3[C@H](O)[C@H](O)CC(=NOC[C@@H](O)COCc4ccco4)[C@H]3CC[C@H]2C(=O)N1c1ccc(F)cc1F

Response:
1. 0.435 (inactive)
2. 0.819 (inactive)
3. -0.455 (inactive)

Give z-score for each of the items listed below.
1. CCCCC#C[C@@H]1C=C[C@H](Oc2ccc(C(=O)OC)cc2)[C@@H](COC(=O)OCC)O1
2. CCOC(=O)C1=NO[C@@]2(C=C(Br)C3(OCCCO3)[C@H]3O[C@H]32)C1

Response:
1.13 (inactive)
0.572 (inactive)

Provide z-score values for the following items, in order.
1. CON=C[C@@H](NS(=O)(=O)c1ccc(C)cc1)[C@H](C)C=CCC(=O)OC
2. CCOC(=O)[C@H](Cc1ccccc1)NC(=O)CCC1CC(OC(=O)NCCc2ccc(F)cc2)CC2(CCCC(COC(=O)NCCc3ccccc3OC)O2)O1 (stereo not given in full)
3. CCOC(=O)[C@H](Cc1ccccc1)NC(=O)CCC1CC(OC(=O)NCc2cccc3ccccc23)CC2(CCCC(COC(=O)NCC(c3ccccc3)c3ccccc3)O2)O1 (stereo not given in full)
4. COC(=O)CC=C[C@@H](C)[C@@H](C=NO[C@@H](C)c1cc(-c2c(C)cc(C)cc2C)no1)NS(=O)(=O)c1ccc(C)cc1
5. Cn1c(=O)n2n(c1=O)[C@H]1[C@H](O)[C@@H]3O[C@@H]3C(=NOCc3ccccc3)[C@H]1CC2

Response:
1: -0.196 (inactive); 2: -0.099 (inactive); 3: 0.155 (inactive); 4: 0.0267 (inactive); 5: 0.383 (inactive)
